- study_system: topoisomerase IIβ (Homo sapiens, UniProt Q02880)
- Construct: purchased
- Sequence (Q02880 whole entry): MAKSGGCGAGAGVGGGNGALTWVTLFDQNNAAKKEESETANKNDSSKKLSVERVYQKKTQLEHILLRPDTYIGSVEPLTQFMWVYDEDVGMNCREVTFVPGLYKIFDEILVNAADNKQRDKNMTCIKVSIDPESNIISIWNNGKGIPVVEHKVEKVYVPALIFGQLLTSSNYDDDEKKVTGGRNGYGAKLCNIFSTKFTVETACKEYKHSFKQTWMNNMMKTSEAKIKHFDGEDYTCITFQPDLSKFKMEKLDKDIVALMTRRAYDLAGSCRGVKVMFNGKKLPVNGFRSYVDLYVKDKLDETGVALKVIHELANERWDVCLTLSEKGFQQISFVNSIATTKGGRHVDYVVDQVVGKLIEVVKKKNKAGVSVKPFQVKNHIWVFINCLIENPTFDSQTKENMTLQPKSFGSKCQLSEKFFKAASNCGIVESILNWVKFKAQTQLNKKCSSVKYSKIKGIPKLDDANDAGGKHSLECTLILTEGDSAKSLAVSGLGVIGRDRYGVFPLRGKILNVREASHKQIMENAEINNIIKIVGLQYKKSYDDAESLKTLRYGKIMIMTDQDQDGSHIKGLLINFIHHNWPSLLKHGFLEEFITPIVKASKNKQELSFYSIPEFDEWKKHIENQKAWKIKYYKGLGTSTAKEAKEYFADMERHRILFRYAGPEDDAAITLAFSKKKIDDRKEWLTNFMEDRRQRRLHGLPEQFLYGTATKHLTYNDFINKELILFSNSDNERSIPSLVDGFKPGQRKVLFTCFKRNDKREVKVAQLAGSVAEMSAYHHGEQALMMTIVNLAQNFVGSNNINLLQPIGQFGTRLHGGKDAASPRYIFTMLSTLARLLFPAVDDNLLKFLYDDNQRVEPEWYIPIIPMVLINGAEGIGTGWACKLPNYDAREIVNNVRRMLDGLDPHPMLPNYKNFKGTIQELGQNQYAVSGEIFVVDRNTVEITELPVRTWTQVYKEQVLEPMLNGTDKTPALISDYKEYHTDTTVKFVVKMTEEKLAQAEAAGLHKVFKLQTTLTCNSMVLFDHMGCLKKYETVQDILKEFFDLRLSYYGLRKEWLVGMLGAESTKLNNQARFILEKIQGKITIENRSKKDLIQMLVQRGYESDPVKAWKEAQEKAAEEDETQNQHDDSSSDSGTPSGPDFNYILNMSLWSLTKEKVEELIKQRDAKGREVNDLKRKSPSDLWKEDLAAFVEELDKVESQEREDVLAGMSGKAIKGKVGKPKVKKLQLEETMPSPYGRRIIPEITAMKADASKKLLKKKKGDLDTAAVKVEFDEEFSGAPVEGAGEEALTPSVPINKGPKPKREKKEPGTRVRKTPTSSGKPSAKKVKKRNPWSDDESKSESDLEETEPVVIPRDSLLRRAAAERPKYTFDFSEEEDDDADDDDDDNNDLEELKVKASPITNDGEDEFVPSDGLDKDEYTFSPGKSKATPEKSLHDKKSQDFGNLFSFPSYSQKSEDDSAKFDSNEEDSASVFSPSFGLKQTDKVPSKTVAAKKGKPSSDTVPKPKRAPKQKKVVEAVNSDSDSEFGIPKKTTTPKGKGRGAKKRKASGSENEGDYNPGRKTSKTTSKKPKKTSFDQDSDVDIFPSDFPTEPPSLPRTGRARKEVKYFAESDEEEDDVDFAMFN
- measurement_description: Topoisomerase II inhibition, human DNA topoisomerase Elisa kit
- Type: biochemical
endpoint: pIC50
Scale note: pIC50 = -log10(concentration in M).

Query block: Quick check: pIC50 of COc1cccc2c1C(=O)c1c(O)c3c(c(O)c1C2=O)C[C@@](O)(C(=O)CO)C[C@@H]3O[C@H]1C[C@H](N)[C@H](O)[C@H](C)O1 [Doxorubicin, reference compound] ?
Result block: 5.19

====

- Test system: A498 renal cancer cell line
- measurement_description: cells
- measurement_context: Homo sapiens, A498
Task for the reader: assign each of the following compounds its reported viability at 0.4 µM.
Number in %, nothing else.

Query block: Quick check: viability at 0.4 µM of O=C(O)c1cn(C2CC2)c2cc(N3CCN(C(=O)CCCN4C(=O)SC(=Cc5ccccc5)C4=O)CC3)c(F)cc2c1=O [3a] ?
Result block: 103

Query block: Quick check: viability at 0.4 µM of O=C(O)c1cn(C2CC2)c2cc(N3CCN(C(=O)CCCN4C(=O)SC(=Cc5cccc6ccccc56)C4=O)CC3)c(F)cc2c1=O [3j] ?
Result block: 84.7

Query block: Quick check: viability at 0.4 µM of O=C(O)c1cn(C2CC2)c2cc(N3CCN(C(=O)CCCN4C(=O)S/C(=C\c5ccc(F)cc5)C4=O)CC3)c(F)cc2c1=O [3i] ?
Result block: 95.7

Query block: Quick check: viability at 0.4 µM of O=C(O)c1cn(C2CC2)c2cc(N3CCN(C(=O)CCCN4C(=O)S/C(=C\c5ccc([N+](=O)[O-])cc5)C4=O)CC3)c(F)cc2c1=O [3k] ?
Result block: 103

Query block: Quick check: viability at 0.4 µM of COc1cccc2c1C(=O)c1c(O)c3c(c(O)c1C2=O)C[C@@](O)(C(=O)CO)C[C@@H]3O[C@H]1C[C@H](N)[C@H](O)[C@H](C)O1 [Doxorubicin, reference compound] ?
Result block: 64.5

Query block: Quick check: viability at 0.4 µM of O=C(O)c1cn(C2CC2)c2cc(N3CCN(C(=O)CCCN4C(=O)CSC4=O)CC3)c(F)cc2c1=O [3 L] ?
Result block: 92.2

Query block: Quick check: viability at 0.4 µM of COc1ccc(C=C2SC(=O)N(CCCC(=O)N3CCN(c4cc5c(cc4F)c(=O)c(C(=O)O)cn5C4CC4)CC3)C2=O)cc1 [3e] ?
Result block: 102

Where do the numbers come from? From paper PMC11480511.
